Origin of the recorded values: paper PMC11859928

# Lookup of reported inhibition at 10 µM keyed by entry
- System: HS 578 T
- PROCEDURE SUMMARY: NCI one-dose assay
- Format: cell-based
- COND: Homo sapiens, Breast cancer, read-out: Cell growth inhibition %
Hi! Could you send only the number? It should be in %, unit omitted.

C=CCn1c(SC/C(=N\O)c2ccccc2)nnc1-c1c[nH]c2ccccc12 ... 5.73
C=CCn1c(SC/C(=N\O)c2ccc(Br)cc2)nnc1-c1c[nH]c2ccccc12 ... 22.1
C=CCn1c(SCC(=O)c2ccccc2)nnc1-c1c[nH]c2ccccc12 ... 2.96
O/N=C(\CSc1nnc(-c2c[nH]c3ccccc23)n1-c1ccccc1)c1ccccc1 ... 33.3
Cc1ccc(/C(CSc2nnc(-c3c[nH]c4ccccc34)n2-c2ccccc2)=N/O)cc1 ... 154
O=C(CSc1nnc(-c2c[nH]c3ccccc23)n1-c1ccccc1)c1ccc(Cl)cc1 ... 66.8
C=CCn1c(SCC(=NO)c2ccc(OC)cc2)nnc1-c1c[nH]c2ccccc12 ... 2.61
C=CCn1c(SC/C(=N\O)c2ccc(C)cc2)nnc1-c1c[nH]c2ccccc12 ... 6.55

In: Report inhibition at 10 µM for COc1ccc(/C(CSc2nnc(-c3c[nH]c4ccccc34)n2-c2ccccc2)=N/O)cc1 tested on HS 578 T.
Out: 61.2

In: Now the molecule O/N=C(\CSc1nnc(-c2c[nH]c3ccccc23)n1-c1ccccc1)c1ccc(Br)cc1
Out: 139

In: Now the molecule O=C(CSc1nnc(-c2c[nH]c3ccccc23)n1-c1ccccc1)c1ccccc1
Out: 75.9

In: Now the molecule C=CCn1c(SCC(=O)c2ccc(C)cc2)nnc1-c1c[nH]c2ccccc12
Out: -2.83

In: Now the molecule C=CCn1c(SC/C(=N\O)c2ccc(Cl)cc2)nnc1-c1c[nH]c2ccccc12
Out: 12.7
